# target entity: TYK2 (Homo sapiens, UniProt P29597)
# Construct: purchased Carna Biosciences
# Sequence (P29597 whole entry): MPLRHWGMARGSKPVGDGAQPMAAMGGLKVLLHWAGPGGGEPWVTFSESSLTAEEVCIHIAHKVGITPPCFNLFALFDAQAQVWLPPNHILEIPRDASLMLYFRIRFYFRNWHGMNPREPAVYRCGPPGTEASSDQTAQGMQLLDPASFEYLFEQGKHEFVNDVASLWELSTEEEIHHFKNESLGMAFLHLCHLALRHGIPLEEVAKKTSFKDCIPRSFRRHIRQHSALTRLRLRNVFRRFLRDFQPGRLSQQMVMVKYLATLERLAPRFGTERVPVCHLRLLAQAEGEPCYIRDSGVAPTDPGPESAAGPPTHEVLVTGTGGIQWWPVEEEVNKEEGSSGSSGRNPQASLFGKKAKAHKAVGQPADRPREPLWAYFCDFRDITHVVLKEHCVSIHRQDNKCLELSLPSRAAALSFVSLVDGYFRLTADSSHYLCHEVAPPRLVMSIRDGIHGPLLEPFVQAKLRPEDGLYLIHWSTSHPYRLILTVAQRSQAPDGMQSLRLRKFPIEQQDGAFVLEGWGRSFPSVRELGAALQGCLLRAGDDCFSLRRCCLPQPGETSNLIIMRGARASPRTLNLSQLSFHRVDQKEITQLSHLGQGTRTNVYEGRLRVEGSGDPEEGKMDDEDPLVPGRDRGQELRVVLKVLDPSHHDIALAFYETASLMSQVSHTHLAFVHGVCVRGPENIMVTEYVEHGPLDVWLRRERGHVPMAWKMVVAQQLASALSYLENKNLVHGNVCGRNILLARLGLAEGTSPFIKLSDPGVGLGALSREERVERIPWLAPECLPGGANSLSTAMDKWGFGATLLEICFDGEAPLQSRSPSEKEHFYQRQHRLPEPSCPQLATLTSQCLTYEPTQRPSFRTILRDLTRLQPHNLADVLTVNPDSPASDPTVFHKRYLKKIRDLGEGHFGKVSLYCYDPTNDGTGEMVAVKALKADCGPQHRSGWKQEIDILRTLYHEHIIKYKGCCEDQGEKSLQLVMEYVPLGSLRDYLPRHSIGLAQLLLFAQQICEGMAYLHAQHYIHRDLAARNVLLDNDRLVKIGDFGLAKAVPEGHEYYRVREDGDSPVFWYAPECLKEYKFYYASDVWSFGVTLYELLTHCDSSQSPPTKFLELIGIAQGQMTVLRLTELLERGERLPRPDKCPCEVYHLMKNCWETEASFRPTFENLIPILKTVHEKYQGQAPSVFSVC
# method description: TYK2 microfluidic kinase assay (Caliper EZ Reader II, FAM labeled peptide substrate)
# Assay type: biochemical
# particulars: IC50 TYK2 ([…]) (1 mM ATP), TYK2 […], 1 mM ATP
reported property: IC50 (nM)
Give just the number in nM; leave the unit off.

- compound: "C[C@@H](C#N)NC(=O)c1ccc(-c2nc(Nc3cnn(CCO)c3)ncc2Cl)cc1 [Example 186]"
  output unit: "nM"
  IC50: 39.7
- compound: "CC[C@@H](C#N)NC(=O)c1ccc(-c2nc(Nc3cnn(C4CCNCC4)c3)ncc2C)cc1 [Example 171]"
  output unit: "nM"
  IC50: 0.88
- compound: "N#CCNC(=O)c1ccc(-c2nc(Nc3cnn(C4CC4)c3)ncc2Cl)cc1 [Example 95]"
  output unit: "nM"
  IC50: 58.9
- compound: "C[C@@H](C#N)NC(=O)c1ccc(-c2nc(Nc3cnn(CC#N)c3)ncc2F)cc1 [Example 53]"
  output unit: "nM"
  IC50: 198
- compound: "CCC[C@@H](C#N)NC(=O)c1ccc(-c2nc(Nc3cnn(C4CCN(C)CC4)c3)ncc2C)cc1 [Example 176]"
  output unit: "nM"
  IC50: 1.1
- compound: "Cc1cnc(Nc2cnn(C3CC3)c2)nc1-c1ccc(C(=O)N(C)CC#N)cc1 [Example 108]"
  output unit: "nM"
  IC50: 1150

Note IC50 for the compound shown: C[C@@H](C#N)NC(=O)c1ccc(-c2nc(Nc3cn[nH]c3)ncc2Cl)cc1 [Example 188] 20.4

Note IC50 for the compound shown: Cc1cnc(Nc2cnn(C)c2)nc1-c1ccc(C(=O)NCC#N)cc1 [Example 11] 83

src = patent US12595253B2
